# protocol_summary: occurrence of SCRAs in intoxication samples of the prospective study
# Design: species or system human
# protocol_conditions: proportion of 139 intoxications in which the substance was detected, 2013 to 2021
Percentage in % of 10% or higher: Y. Under 10%: N.

| compound | classification |
| --- | --- |
| CC(C)C(NC(=O)c1nn(CC2CCCCC2)c2ccccc12)C(N)=O (centres unmarked) | Y |
| CC(C)(C)C(NC(=O)c1nn(CC2CCCCC2)c2ccccc12)C(N)=O (centres unmarked) | Y |
| COC(=O)C(NC(=O)c1cn(CCCCCF)c2ccccc12)C(C)(C)C (centres unmarked) | Y |
| C=CCCCn1nc(C(=O)NC(C(=O)OC)C(C)(C)C)c2ccccc21 (centres unmarked) | N |
| COC(=O)C(NC(=O)c1cn(CCCCF)c2ccccc12)C(C)(C)C (centres unmarked) | N |
| COC(=O)C(NC(=O)c1nn(CCCCCF)c2ccccc12)C(C)(C)C (centres unmarked) | Y |
| CCCCCn1cc(C(=O)c2ccc(CC)c3ccccc23)c2ccccc21 | N |
| O=C(Oc1cccc2cccnc12)c1cn(CCCCCF)c2ccccc12 | N |
| CCCCCn1c2ccccc2c2c(=O)n(C(C)(C)c3ccccc3)ccc21 | N |
| CC(C)(c1ccccc1)n1ccc2c(c1=O)c1ccccc1n2CCCCCF | N |
| COC(=O)C(NC(=O)c1cn(CC2CCCCC2)c2ccccc12)C(C)(C)C (centres unmarked) | Y |
